Parameter: growth. Scope: all listed entries.
Tested on: SN12C renal
assay summary: NCI-60 one-dose screen, 48 h (100 = growth as untreated, 0 = no growth, -100 = all killed)
conditions used: 10 µM unless noted
About 83,000 compounds went through this panel and 20% of them were active in at least one assay; those are over-represented in the sample as a whole. The source made the active and inactive calls. Rule for the calls: active = growth percent below 10; inactive = the rest.

>>> meas_value("Cc1sc2nc(NCc3ccccc3)[nH]c(=O)c2c1C")
"68.5% (inactive)"

Answer with the recorded growth for the compound listed here: CNc1nc(NC2CCCC2)nc(Sc2ccc(OC)cc2)n1
28.5% [100 µM] (inactive)

Tell me growth reported for COc1cc2c(cc1OC)C(CC1(O)CCCCC1)N(S(=O)(=O)c1ccc(C)cc1)CC2 (stereo unspecified)
42.3% [100 µM] (inactive)

Identify measured growth associated with COc1cnc2c(c1)C(=O)c1c-2n(CCCn2ccnc2)c(=O)c2cc(F)ccc12
12.4% (inactive)

Answer with the recorded growth for the compound listed here: O=c1ccn(C2CC=C(CO)O2)c(=O)[nH]1 (stereo unspecified)
92.1% (inactive)

Input c1ccc(COc2ccc(Nc3ncnc4c3cnn4-c3ccccc3)cc2)cc1 , output reported growth.
97.4% (inactive)
